The measured values listed here are drawn from ChEMBL document CHEMBL1156003.

biological target: Bifunctional epoxide hydrolase 2 (Homo sapiens); experiment: Inhibition of human sEH assessed as DHET production in presence of 10% human serum
pIC50: −log10 of the molar value.

>  <STRUCTURE NOTATION>
FC(F)(F)c1ccc(Nc2noc3c(C(F)(F)F)cccc23)cc1

>  <TARGET SYSTEM>
Bifunctional epoxide hydrolase 2 (Homo sapiens)

>  <pIC50>
5.92

$$$$

---

experiment: Oral bioavailability in rat at 2 mg/kg; type: ADME, organism-based; conditions: in vivo
ATTRIBUTE MEASURED: bioavailability (%)

>  <STRUCTURE NOTATION>
FC(F)(F)c1ccc(Nc2noc3c(C(F)(F)F)cccc23)cc1

>  <OBS VALUE>
98

$$$$

---

Target: Bifunctional epoxide hydrolase 2 (Rattus norvegicus)
Sequence (P80299 whole entry): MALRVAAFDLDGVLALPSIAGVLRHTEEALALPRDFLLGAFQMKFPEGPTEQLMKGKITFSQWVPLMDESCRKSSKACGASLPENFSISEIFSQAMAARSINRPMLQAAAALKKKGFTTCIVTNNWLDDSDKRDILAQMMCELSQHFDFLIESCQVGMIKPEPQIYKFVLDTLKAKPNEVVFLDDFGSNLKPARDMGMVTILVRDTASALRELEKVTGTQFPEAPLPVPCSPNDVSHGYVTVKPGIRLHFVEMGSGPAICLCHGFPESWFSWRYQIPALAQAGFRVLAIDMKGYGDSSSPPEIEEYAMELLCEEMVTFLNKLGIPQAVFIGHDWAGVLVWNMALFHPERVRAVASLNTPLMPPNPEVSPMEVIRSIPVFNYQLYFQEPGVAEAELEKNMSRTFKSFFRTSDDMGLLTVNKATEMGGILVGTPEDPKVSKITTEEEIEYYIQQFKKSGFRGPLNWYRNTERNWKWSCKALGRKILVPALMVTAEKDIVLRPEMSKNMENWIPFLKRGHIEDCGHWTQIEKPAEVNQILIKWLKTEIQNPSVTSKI
Assay: Inhibition of rat sEH
Readings of IC50 for the listed compounds

>  <STRUCTURE NOTATION>
FC(F)(F)c1ccc(Nc2noc3cc(-c4cccc5cnccc45)ccc23)cc1

>  <IC50, nM>
30

$$$$
>  <STRUCTURE NOTATION>
FC(F)(F)c1ccc(Nc2noc3c(C(F)(F)F)nccc23)cc1

>  <IC50, nM>
300

$$$$
>  <STRUCTURE NOTATION>
FC(F)(F)c1ccc(Nc2noc3c(C(F)(F)F)cccc23)cn1

>  <IC50, nM>
3400

$$$$
>  <STRUCTURE NOTATION>
FC(F)(F)c1ccc(Nc2noc3c(-c4cccc(C(F)(F)F)c4)cccc23)cc1

>  <IC50, nM>
130

$$$$

---

Target: Bifunctional epoxide hydrolase 2 (Homo sapiens)
Sequence (P34913 whole entry): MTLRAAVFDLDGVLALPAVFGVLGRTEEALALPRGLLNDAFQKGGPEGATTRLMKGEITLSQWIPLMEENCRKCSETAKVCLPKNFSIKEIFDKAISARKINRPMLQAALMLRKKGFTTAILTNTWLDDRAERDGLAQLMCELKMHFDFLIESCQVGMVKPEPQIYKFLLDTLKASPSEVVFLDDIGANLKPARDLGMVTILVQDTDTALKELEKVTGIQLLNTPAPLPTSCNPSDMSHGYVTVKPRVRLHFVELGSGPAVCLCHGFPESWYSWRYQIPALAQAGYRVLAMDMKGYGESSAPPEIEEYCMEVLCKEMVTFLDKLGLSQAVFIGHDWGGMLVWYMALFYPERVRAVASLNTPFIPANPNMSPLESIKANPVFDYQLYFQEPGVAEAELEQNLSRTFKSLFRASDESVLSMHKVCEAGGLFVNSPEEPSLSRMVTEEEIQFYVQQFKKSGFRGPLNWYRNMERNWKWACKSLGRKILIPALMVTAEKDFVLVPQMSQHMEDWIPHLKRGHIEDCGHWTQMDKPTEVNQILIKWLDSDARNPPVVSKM
Test: Inhibition of human sEH
pIC50: −log10 of the molar value.
Readings of pIC50 for the listed molecules
ATTRIBUTE MEASURED: pIC50

>  <STRUCTURE NOTATION>
FC(F)(F)c1ccc(Nc2noc3c(-c4ccc5[nH]ccc5c4)cccc23)cc1

>  <RELATIONAL OPERATOR>
=

>  <OBS VALUE>
8.10

$$$$
>  <STRUCTURE NOTATION>
Cc1cccnc1-c1ccc2c(Nc3ccc(C(F)(F)F)cc3)noc2c1

>  <RELATIONAL OPERATOR>
=

>  <OBS VALUE>
7.15

$$$$
>  <STRUCTURE NOTATION>
FC(F)(F)c1ccc(Nc2noc3cc(-c4cccc(C(F)(F)F)c4)ccc23)cc1

>  <RELATIONAL OPERATOR>
=

>  <OBS VALUE>
6.33

$$$$
>  <STRUCTURE NOTATION>
FC(F)(F)c1ccc(Nc2noc3cc(-c4cccnc4)ccc23)cc1

>  <RELATIONAL OPERATOR>
=

>  <OBS VALUE>
7.64

$$$$
>  <STRUCTURE NOTATION>
FC(F)(F)c1ccc(Nc2noc3c(-c4cccc(C(F)(F)F)c4)cccc23)cc1

>  <RELATIONAL OPERATOR>
=

>  <OBS VALUE>
8.00

$$$$
>  <STRUCTURE NOTATION>
c1ccc2cc(Nc3noc4ccccc34)ccc2c1

>  <RELATIONAL OPERATOR>
=

>  <OBS VALUE>
5.92

$$$$
>  <STRUCTURE NOTATION>
FC(F)(F)c1ccc(Nc2cc(-c3ccccc3)on2)cc1

>  <RELATIONAL OPERATOR>
<

>  <OBS VALUE>
5.00

$$$$
>  <STRUCTURE NOTATION>
c1ccc(-c2ccc(Nc3noc4ccccc34)cc2)cc1

>  <RELATIONAL OPERATOR>
=

>  <OBS VALUE>
6.77

$$$$
>  <STRUCTURE NOTATION>
FC(F)(F)c1ccc(Nc2noc3ccncc23)cc1

>  <RELATIONAL OPERATOR>
=

>  <OBS VALUE>
6.47

$$$$
>  <STRUCTURE NOTATION>
FC(F)(F)c1ccc(Nc2noc3cc(-c4ccccc4C(F)(F)F)ccc23)cc1

>  <RELATIONAL OPERATOR>
=

>  <OBS VALUE>
8.10

$$$$
>  <STRUCTURE NOTATION>
FC(F)(F)c1ccc(Nc2noc3cnccc23)cc1

>  <RELATIONAL OPERATOR>
=

>  <OBS VALUE>
7.51

$$$$

---

Readings of log10 IC50 for the listed compounds
Target: Bifunctional epoxide hydrolase 2 (Rattus norvegicus)
Sequence (P80299 whole entry): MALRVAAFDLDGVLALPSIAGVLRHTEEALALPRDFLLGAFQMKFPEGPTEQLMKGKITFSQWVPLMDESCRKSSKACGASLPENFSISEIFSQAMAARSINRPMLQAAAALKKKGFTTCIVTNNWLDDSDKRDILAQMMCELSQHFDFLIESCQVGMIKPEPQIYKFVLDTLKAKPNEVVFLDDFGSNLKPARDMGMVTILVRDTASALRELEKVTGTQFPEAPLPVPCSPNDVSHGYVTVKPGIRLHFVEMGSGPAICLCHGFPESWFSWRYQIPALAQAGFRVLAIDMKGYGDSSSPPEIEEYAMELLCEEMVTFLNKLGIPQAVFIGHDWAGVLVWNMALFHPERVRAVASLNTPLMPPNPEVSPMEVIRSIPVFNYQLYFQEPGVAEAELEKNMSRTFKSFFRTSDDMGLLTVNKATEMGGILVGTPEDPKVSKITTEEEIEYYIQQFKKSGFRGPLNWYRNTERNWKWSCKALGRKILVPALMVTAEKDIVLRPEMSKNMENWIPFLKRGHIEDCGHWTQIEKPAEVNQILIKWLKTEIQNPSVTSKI
Assay: Inhibition of rat sEH
ATTRIBUTE MEASURED: log10 IC50 (log10 of the value in nM)

>  <STRUCTURE NOTATION>
FC(F)(F)c1ccc(Nc2noc3c(C(F)(F)F)cccc23)cc1

>  <TARGET SYSTEM>
Bifunctional epoxide hydrolase 2 (Rattus norvegicus)

>  <log10 IC50>
2.10

$$$$
>  <STRUCTURE NOTATION>
FC(F)(F)c1ccc(Nc2noc3ccc(C(F)(F)F)cc23)cc1

>  <TARGET SYSTEM>
Bifunctional epoxide hydrolase 2 (Rattus norvegicus)

>  <log10 IC50>
3.18

$$$$
>  <STRUCTURE NOTATION>
FC(F)(F)Oc1ccc(Nc2noc3ccccc23)cc1

>  <TARGET SYSTEM>
Bifunctional epoxide hydrolase 2 (Rattus norvegicus)

>  <log10 IC50>
2.23

$$$$
>  <STRUCTURE NOTATION>
FC(F)(F)c1ccc(Nc2noc3c(-c4ccccc4C(F)(F)F)cccc23)cc1

>  <TARGET SYSTEM>
Bifunctional epoxide hydrolase 2 (Rattus norvegicus)

>  <log10 IC50>
1.90

$$$$
>  <STRUCTURE NOTATION>
FC(F)(F)Oc1cccc(Nc2noc3ccccc23)c1

>  <TARGET SYSTEM>
Bifunctional epoxide hydrolase 2 (Rattus norvegicus)

>  <log10 IC50>
2.20

$$$$
>  <STRUCTURE NOTATION>
FC(F)(F)c1ccc(Nc2noc3cc(-c4ccncc4)ccc23)cc1

>  <TARGET SYSTEM>
Bifunctional epoxide hydrolase 2 (Rattus norvegicus)

>  <log10 IC50>
1.28

$$$$
>  <STRUCTURE NOTATION>
Fc1ccccc1-c1ccc2c(Nc3ccc(C(F)(F)F)cc3)noc2c1

>  <TARGET SYSTEM>
Bifunctional epoxide hydrolase 2 (Rattus norvegicus)

>  <log10 IC50>
1.74

$$$$
>  <STRUCTURE NOTATION>
FC(F)(F)c1ccc(Nc2noc3cc(-c4ccccc4C(F)(F)F)ccc23)cc1

>  <TARGET SYSTEM>
Bifunctional epoxide hydrolase 2 (Rattus norvegicus)

>  <log10 IC50>
1.85

$$$$
>  <STRUCTURE NOTATION>
Cc1cccnc1-c1ccc2c(Nc3ccc(C(F)(F)F)cc3)noc2c1

>  <TARGET SYSTEM>
Bifunctional epoxide hydrolase 2 (Rattus norvegicus)

>  <log10 IC50>
2.46

$$$$
>  <STRUCTURE NOTATION>
FC(F)(F)c1ccc(Nc2noc3cc(-c4cccc(C(F)(F)F)c4)ccc23)cc1

>  <TARGET SYSTEM>
Bifunctional epoxide hydrolase 2 (Rattus norvegicus)

>  <log10 IC50>
2.76

$$$$
